Target: Prostaglandin G/H synthase 2 (Homo sapiens)
Assay: Inhibition of human COX2 assessed as reduction in PGF2alpha level at 100 uM using arachidonic acid as substrate preincubated for 10 mins followed by substrate addition by ELISA relative to control
property: inhibition (%)

Study these solved cases before continuing.
Oc1ccc(/C=C/c2cc[n+](Cc3cccc(Cl)c3)cc2)cc1 ... 21.9
O=[N+]([O-])c1ccc(/C=C/c2ccc(OCc3ccccc3)cc2)cc1 ... 15.7
CCOc1ccc(/C=C/c2ccccc2)cc1 ... 40.8

1: CC(=O)Oc1cccc(/C=C/c2ccc([N+](=O)[O-])cc2[N+](=O)[O-])c1
2: Oc1ccc(/C=C/c2cc[n+](Cc3ccccc3Cl)cc2)cc1
Ask: // returns 1 or 2 , whichever has the lower inhibition State your choice using its label.
Result: 2
(2: 10.2%, 1: 34.1%)

###

Target: Prostaglandin G/H synthase 2 (Homo sapiens)
property: IC50 (µM)

COc1ccc(/C=C/c2ccc([N+](=O)[O-])cc2)cc1OC ... 4.69

1: CCOc1ccc(/C=C/c2ccc([N+](=O)[O-])cc2)cc1
2: COc1cc(/C=C/c2ccc([N+](=O)[O-])cc2)cc(OC)c1OC
Ask: // returns 1 or 2 , whichever has the lower IC50 State your choice using its label.
Result: 2

###

Assay: Selectivity index, ratio of IC50 for ovine COX1 to IC50 for human COX2
property: Ratio IC50

COc1cc(/C=C/c2ccc([N+](=O)[O-])cc2)cc(OC)c1OC ... 1.23
COC(=O)COc1ccc(/C=C/c2ccc([N+](=O)[O-])cc2)cc1 ... 4.13

a: CCOc1ccc(/C=C/c2ccc([N+](=O)[O-])cc2)cc1
b: COc1ccc(/C=C/c2ccc([N+](=O)[O-])cc2)cc1OC
c: O=[N+]([O-])c1ccc(/C=C/c2cc(O)c(O)c(O)c2)cc1
d: COC(=O)COc1ccc(/C=C/c2ccc(Cl)cc2)cc1
Ask: Ranking field: Ratio IC50; order: falling. // respond by listing labels in the order requested
Result: c, a, d, b
(c: 62.8, a: 21.2, d: 5.45, b: 0.14)

###

Biological target: Prostaglandin G/H synthase 2 (Homo sapiens)
Sequence (whole entry): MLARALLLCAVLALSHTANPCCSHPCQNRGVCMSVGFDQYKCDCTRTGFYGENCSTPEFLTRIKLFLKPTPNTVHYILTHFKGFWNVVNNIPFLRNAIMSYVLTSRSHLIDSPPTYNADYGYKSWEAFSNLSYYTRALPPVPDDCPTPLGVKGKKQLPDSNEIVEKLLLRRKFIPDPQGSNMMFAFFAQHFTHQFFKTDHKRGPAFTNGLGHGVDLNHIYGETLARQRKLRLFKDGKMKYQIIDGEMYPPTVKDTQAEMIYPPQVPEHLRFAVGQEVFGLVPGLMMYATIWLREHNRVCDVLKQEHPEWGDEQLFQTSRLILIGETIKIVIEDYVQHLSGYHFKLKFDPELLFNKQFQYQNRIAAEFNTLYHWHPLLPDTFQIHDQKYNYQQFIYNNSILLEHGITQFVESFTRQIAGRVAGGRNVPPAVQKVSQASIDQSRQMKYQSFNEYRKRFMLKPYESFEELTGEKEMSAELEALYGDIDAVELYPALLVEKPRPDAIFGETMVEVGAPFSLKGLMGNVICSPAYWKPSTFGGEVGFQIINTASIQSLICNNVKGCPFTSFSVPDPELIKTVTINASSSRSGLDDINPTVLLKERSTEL
Test: Inhibition of human COX2 assessed as reduction in PGF2alpha level at 100 uM using arachidonic acid as substrate preincubated for 10 mins followed by substrate addition by ELISA relative to control
property: inhibition (%)

Study these solved cases before continuing.
COC(=O)COc1ccc(/C=C/c2ccc(Cl)cc2)cc1 ... 71.8
Oc1ccc(/C=C/c2ccc(O)cc2)cc1 [TRANS-4,4'-DIHYDROXYSTILBENE] ... 11.1
CCOc1ccc(/C=C/c2ccc([N+](=O)[O-])cc2)cc1 ... 77.4
COC(=O)COc1ccc(/C=C/c2ccc(OCC(=O)OC)cc2)cc1 ... 44.5
COC(=O)COc1ccc(/C=C/c2ccc([N+](=O)[O-])cc2)cc1 ... 66.3

P: O=[N+]([O-])c1ccc(/C=C/c2ccc(O)cc2)cc1
Q: Oc1ccc(/C=C/c2ccc(Cl)cc2)cc1
Ask: Returns: the argument ( P or Q ) having the larger inhibition. State your choice using its label.
Result: P
